Each recorded value in this set is attributed to PubChem BioAssay AID1159580.

test: chemical genetic growth profiling, strain panel (AID 1159580);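 note: tested at 20 µM; growth read once vehicle control cultures reached saturation at 30 °C; 1 = growth at the plate median or of vehicle wells; lower values mean less growth of the strain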; settings: S. cerevisiae deletion strains, growth OD, locus YDL035C, strain GPR1, stronger effect = lower value
Screen size: about 5,500 compounds; about 2,000 (36%) were called active. Not shown: some 18% with an inconclusive outcome. The list shows a part of the results.
experimental readout: normalized growth

# normalized growth (compound: CN(C)[C@@H]1C(=O)C(C(N)=O)=C(O)[C@@]2(O)C(=O)C3=C(O)c4c(O)cccc4[C@@](C)(O)[C@H]3[C@H](O)[C@@H]12 ) is 1 (inactive)

Record COc1cc(C(C)=O)cc(OC)c1O , field normalized growth: 0.993 (inactive)

compound CC(C)CCCC(C)C1CCC2C3C[C@@H](O)[C@@]4(O)C[C@@H](O)CC[C@]4(C)C3CC[C@]12C (stereo not given in full) , normalized growth observed: 1.06 (inactive)

For CN(C)c1ccc(O)c2c1C[C@H]1C[C@H]3[C@H](N(C)C)C(=O)C(C(N)=O)=C(O)[C@@]3(O)C(=O)C1=C2O the compound record lists normalized growth as 0.963 (inactive)

Sample CC(=O)Oc1ccc(C(c2ccc(OC(C)=O)cc2)c2ccccn2)cc1 ; normalized growth observed: 1.03 (inactive)

For reference, reported normalized growth for CC(C)CC1NC(=O)CNC1=O (stereo not given) stands at 0.992 (inactive)

Entry CC(=O)c1ccc(O)c(CC=C(C)C)c1 , normalized growth reported as 0.956 (inactive)

Reported normalized growth for CC(C)CCCC(C)[C@H]1CCC2C3CC=C4C[C@@H](O)CC[C@]4(C)C3CC[C@@]21C (stereo not given in full) was 1.03 (inactive)

Measured normalized growth of CC(=O)Oc1cccc(O)c1 : 1.01 (inactive)

Form field normalized growth, entry CC(C)CCCC(C)C1CCC2C3=CC[C@H]4C[C@@H](O)CC[C@]4(C)C3CC[C@@]21C (stereo not given in full) : 0.996 (inactive)

----------
assay: chemical genetic growth profiling, strain panel (AID 1159580);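 note: tested at 20 µM; growth read once vehicle control cultures reached saturation at 30 °C; 1 = growth at the plate median or of vehicle wells; lower values mean less growth of the strain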; conditions: S. cerevisiae deletion strains, growth OD, locus YLR262C, strain YPT6, stronger effect = lower value
The campaign covered roughly 5,500 compounds. About 2,000 (36%) were called active. Roughly 18% stayed inconclusive and do not appear here. This is one part of the list.
experimental readout: normalized growth

Looking up Cc1cc(=O)[nH]c(=S)[nH]1 , I see its normalized growth listed as 1.07 (inactive)

Summary for this compound, COC(OC)c1cc(=O)[nH]c(=S)[nH]1 : normalized growth is 1.03 (inactive)

Form field normalized growth, entry CC(=O)OC1CCC2(C)C(CC(OC(C)=O)C3(C)C4=CC(=O)OC(c5ccoc5)C4(C)CCC23)C1(C)C (stereo not given) : 0.954 (inactive)

Per the records, this compound ( C[C@H]1c2cccc(O)c2C(O)=C2C(=O)[C@]3(O)C(O)=C(C(N)=O)C(=O)[C@@H](N(C)C)[C@@H]3[C@@H](O)[C@@H]21 ) has normalized growth equal to 0.967 (inactive)

# normalized growth (compound: C=C(C)C1(O)OC(=O)C=C1OC (stereo not given) ) is 0.918 (inactive)

----------
assay: chemical genetic growth profiling, strain panel (AID 1159580);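 note: tested at 20 µM; growth read once vehicle control cultures reached saturation at 30 °C; 1 = growth at the plate median or of vehicle wells; lower values mean less growth of the strain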; conditions: S. cerevisiae deletion strains, growth OD, locus YNR052C, strain pop2, stronger effect = lower value
Screen size: about 5,500 compounds; about 2,000 (36%) were called active. Inconclusive results (about 18%) are left out. This is one part of the list.
Would you mind telling me the reported normalized growth of each entry?
Just the number.

According to the records, this compound CN(C)CCCN1c2ccccc2CCc2ccc(Cl)cc21 displays normalized growth of 0.935

normalized growth reading for CC(=O)c1cc(CC=C(C)C)c(O)c(CC=C(C)C)c1 : 0.989

normalized growth measured on CN(C)CCCN1c2ccccc2CCc2ccccc21 = 0.978

Form field normalized growth, entry CC[N+](C)(C)c1cccc(O)c1 : 0.984

compound CCCSc1ccc2nc(NC(=O)OC)[nH]c2c1 , normalized growth observed: 0.958

normalized growth for OC[C@H]1O[C@@](CO)(O[C@@H]2O[C@H](CO)[C@@H](O)[C@H](O)[C@H]2O)[C@@H](O[C@@H]2O[C@H](CO)[C@@H](O)[C@H](O)[C@H]2O)[C@@H]1O is 1.03

Data point: CN(C)CCCN1c2ccccc2Sc2ccc(Cl)cc21 ; normalized growth = 0.94

Lab book: normalized growth of CC(=O)c1ccc(O)c(CC=C(C)C)c1 noted as 0.983

Lab note: measured normalized growth of CS(=O)(=O)Nc1ccc([N+](=O)[O-])cc1Oc1ccccc1 was 0.976

Summary for this compound, COc1cc(C(C)=O)cc(OC)c1O : normalized growth is 0.993

Lab book: normalized growth of COc1ccc(C2Sc3ccccc3N(CCN(C)C)C(=O)C2OC(C)=O)cc1 (stereo unspecified) noted as 1.05

The measured normalized growth associated with COc1ccc([C@@H]2CC(=O)c3c(O)cc(O[C@@H]4O[C@H](CO[C@H]5O[C@@H](C)[C@H](O)[C@@H](O)[C@H]5O)[C@@H](O)[C@H](O)[C@H]4O)cc3O2)cc1O reads 0.986

Looking up NS(=O)(=O)c1cc2c(cc1Cl)NC(CSCc1ccccc1)=NS2(=O)=O , I found its normalized growth recorded as 0.981

Record CC(=O)OCC(=O)[C@@]1(O)[C@H](C)CC2C3CCC4=CC(=O)C=C[C@]4(C)[C@@]3(F)[C@@H](O)C[C@@]21C (stereo partly specified) . Reported normalized growth: 1.01

Value of normalized growth reported for the compound CC(C)=CCc1c2c(c3occ(-c4ccc(O)cc4)c(=O)c3c1O)C=CC(C)(C)O2 is 1

Sample OC[C@H]1O[C@@H](O[C@H]2[C@H](O)[C@@H](O)[C@@H](O)O[C@@H]2CO)[C@H](O)[C@@H](O)[C@@H]1O ; normalized growth observed: 1.01

Lab book: normalized growth of CN(C)CCCN1c2ccccc2Sc2ccc(C(F)(F)F)cc21 noted as 0.962

Notebook: CC(C)CCCC(C)C1CCC2C3CC[C@H]4C[C@@H](O)CC[C@]4(C)C3CC[C@]12C (stereo partly specified) , normalized growth read as 0.996

Memo: CC(C)CCCC(C)[C@H]1CCC2C3CC=C4CC(=O)CC[C@]4(C)C3CC[C@@]21C (stereo partly specified) , reported normalized growth: 0.98

Recorded result, Cc1cc(=O)oc2cc(O)c(O)cc12 , normalized growth: 0.974

Given item CC1=CC(=O)c2ccccc2C1=O , the value recorded as its normalized growth is 0.12

----------
test: chemical genetic growth profiling, strain panel (AID 1159580);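 note: tested at 20 µM; growth read once vehicle control cultures reached saturation at 30 °C; 1 = growth at the plate median or of vehicle wells; lower values mean less growth of the strain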; conditions: S. cerevisiae deletion strains, growth OD, locus YNL128W, strain TEP1, stronger effect = lower value
Among all 5,500 compounds or so, about 2,000 (36%) were called active. Not shown: some 18% with an inconclusive outcome. The list shows a part of the results.
For each record, write down the corresponding normalized growth.
Give only the figure.

// field: normalized growth; key: OC(c1ccccc1)(c1ccccc1)c1ccncc1 ; value = 0.999

Looking up CC1(C)CC2C1CC[C@]1(CBr)CCC3C(CC(=O)O)C(=O)O[C@@]32C1 (some centres undefined) , I see its normalized growth listed as 0.984

For reference, reported normalized growth for CN(C)[C@@H]1C(=O)C(C(N)=O)=C(O)[C@@]2(O)C(=O)C3=C(O)c4c(O)ccc(Cl)c4[C@@H](O)[C@H]3C[C@@H]12 stands at 1.01

normalized growth recorded for this compound, CC(C)c1ccc2c(c1)CCC1C(C)(C(N)=O)CCCC21C (centres undefined) , is 0.925

COC(=O)c1c(OC)cc2c(c1C)Oc1c(Cl)c(O)c(Cl)c(C)c1C(=O)O2 has a reported normalized growth of 0.89

GET /value?item= CCC(C)C(=O)OC1[C@@H]2CC3=C4CC(=O)O[C@@H](c5ccoc5)[C@]4(C)CCC3[C@@](C)(C2=O)[C@@H](CC(=O)OC)C1(C)C (some centres undefined) &field=normalized growth returns 0.995

The compound identified as C=C1c2cccc(O)c2C(O)=C2C(=O)[C@]3(O)C(O)=C(C(N)=O)C(=O)[C@@H](N(C)C)[C@@H]3[C@@H](O)[C@H]12 registered its normalized growth at 0.976

Per the record, C=C1c2c(Cl)ccc(O)c2C(O)=C2C(=O)[C@]3(O)C(O)=C(C(N)=O)C(=O)[C@@H](N(C)C)[C@@H]3[C@@H](O)[C@H]12 has normalized growth of 0.936

In plain terms, COc1cc(C/C=C/c2ccccc2)c(OC)cc1O has a documented normalized growth of 0.944

Documented normalized growth of CN(C)c1ccc(O)c2c1C[C@H]1C[C@H]3[C@H](N(C)C)C(=O)C(C(N)=O)=C(O)[C@@]3(O)C(=O)C1=C2O : 0.922

Form field normalized growth, entry COC(=O)c1c(C)c2c(c(C)c1OC)OC(=O)c1c(C)c(Cl)c(OC)c(Cl)c1O2 : 1.04

Quick note, normalized growth for N=C(N)N landed at 0.995

Entry CC(=O)OC1CCC2(C)C(CC(OC(C)=O)C3(C)C4=CC(=O)OC(c5ccoc5)C4(C)CCC23)C1(C)C (centres undefined) — recorded normalized growth = 1

normalized growth for CC(C)=CCc1c2c(c3occ(-c4ccc(O)cc4)c(=O)c3c1O)C=CC(C)(C)O2 is 0.643

Recorded normalized growth (compound NCC(=O)c1ccccc1 ): 1.05

Given item CN[C@@H]1[C@H](O)[C@H](NC)[C@H]2O[C@@]3(O)C(=O)C[C@@H](C)O[C@H]3O[C@@H]2[C@H]1O , the value recorded as its normalized growth is 1.02

get_value(item= CC(N=C(NC#N)Nc1ccncc1)C(C)(C)C (centres undefined) , readout=normalized growth) returns 1.02

GET /value?item= Cc1cc(=O)[nH]c(=S)[nH]1 &field=normalized growth returns 1

Lab note: CC12CCC(=O)C=C1CCC1C2[C@@H](O)CC2(C)C1CC[C@]2(O)C(=O)COP(=O)(O)O (some centres undefined) gave normalized growth of 1.03
